Experiment: Inhibition of ABCB1 in multidrug-resistant human SW620/Ad300 cells assessed as increase in reversal of resistance to paclitaxel-induced cytotoxicity by measuring paclitaxel IC50 at 20 uM pre-incubated for 4 hrs followed by paclitaxel addition and measured after 72 hrs by MTT assay (Rvb = 4233.18 +/- 499.10 nM)
measurement_name: IC50 (nM)
One number for each entry, in nM.

Quickly give me recorded IC50 for Cc1cc(Nc2ccc(F)cc2)n2nc(SCc3nc4ccccc4[nH]3)nc2n1
22

###

Test: Inhibition of ABCB1 in multidrug-resistant human KB-C2 cells assessed as increase in reversal of resistance to paclitaxel-induced cytotoxicity by measuring paclitaxel IC50 at 20 uM pre-incubated for 4 hrs followed by paclitaxel addition and measured after 72 hrs by MTT assay (Rvb = 1886.37 +/- 243.05 nM)
measurement_name: pIC50
One number for each entry, as −log10 of the molar value.

Quickly give me recorded pIC50 for Cc1cc(Nc2ccc(F)cc2)n2nc(SCc3nc4ccccc4[nH]3)nc2n1
8.32

###

For each of the molecules below, state its IC50.
Test: Inhibition of ABCB1 in multidrug-resistant human SW620/Ad300 cells assessed as increase in reversal of resistance to paclitaxel-induced cytotoxicity by measuring paclitaxel IC50 pre-incubated for 4 hrs followed by paclitaxel addition and measured after 72 hrs by MTT assay (Rvb = 4.23 +/- 0.6 uM)
One number for each entry, in µM.

Reference set (5 entries):
INSERT INTO measurements (cpd_smiles, measurement_name, value_measured) VALUES
  ('Cc1cc(Nc2ccc(F)cc2)n2nc(SCC(=O)c3ccccc3)nc2n1', 'IC50', 1.26),
  ('COc1ccc(Nc2cc(C)nc3nc(SCc4nc5ccccc5[nH]4)nn23)cc1', 'IC50', 0.32),
  ('O=c1cc(-c2ccccc2)[nH]c2nc(SCc3nc4ccccc4[nH]3)nn12', 'IC50', 0.66),
  ('Cc1cc(Nc2cc(C)[nH]n2)n2nc(SCc3nc4ccccc4[nH]3)nc2n1', 'IC50', 1.57),
  ('Cc1cc(Nc2ccc(F)cc2)n2nc(SCc3cccc([N+](=O)[O-])c3)nc2n1', 'IC50', 1.99);

For each listed entry, give its IC50.
1. Cc1cc(Nc2ccc(F)cc2)n2nc(SCc3ccccc3Br)nc2n1
2. Cc1cc(Nc2ccc(Cl)cc2Cl)n2nc(SCc3nc4ccccc4[nH]3)nc2n1
3. Cc1cc(Nc2ccc(F)cc2)n2nc(SCc3ccc(Cl)cc3)nc2n1
4. Cc1cc(Nc2ccc(O)cc2)n2nc(SCc3nc4ccccc4[nH]3)nc2n1
5. Cc1cc(Nc2ccc(F)cc2)n2nc(SCc3csc4ccc(Cl)cc34)nc2n1
6. Cc1ccc(Nc2cc(C)nc3nc(SCc4nc5ccccc5[nH]4)nn23)cc1
7. COc1cc(Nc2cc(C)nc3nc(SCc4nc5ccccc5[nH]4)nn23)cc(OC)c1OC

1: 1.64; 2: 0.71; 3: 1.89; 4: 2.38; 5: 2.84; 6: 0.5; 7: 0.25

For each listed entry, give its IC50.
1. Cc1cc(Nc2ccc(F)cc2)n2nc(SCc3ccc([N+](=O)[O-])cc3)nc2n1
2. Cc1cc(Nc2ccc(N3CCN(C)CC3)cc2)n2nc(SCc3nc4ccccc4[nH]3)nc2n1
3. Cc1cc(Nc2ccc3c(C)cc(=O)oc3c2)n2nc(SCc3nc4ccccc4[nH]3)nc2n1
4. Cc1cc(Nc2ccc(C(=O)O)cc2)n2nc(SCc3nc4ccccc4[nH]3)nc2n1

2.28
1.59
1.14
4.08

###

Assay: Inhibition of ABCB1 in multidrug-resistant human SW620/Ad300 cells assessed as increase in reversal of resistance to paclitaxel-induced cytotoxicity by measuring paclitaxel IC50 pre-incubated for 4 hrs followed by paclitaxel addition and measured after 72 hrs by MTT assay (Rvb = 4.23 +/- 0.6 uM)
measurement_name: pIC50
One number for each entry, as −log10 of the molar value.

For each listed entry, give its pIC50.
1. Cc1cc(Nc2ccc(F)cc2)n2nc(SCCc3ccccc3)nc2n1
2. Cc1cc(Nc2ccc(F)cc2)n2nc(SCc3ccc(C(F)(F)F)cc3)nc2n1
3. CCCSc1nc2nc(C)cc(Nc3ccc(F)cc3)n2n1
4. CC(C)c1cc(Nc2ccc(F)cc2)n2nc(SCc3ccccc3)nc2n1

1. 5.81
2. 5.59
3. 5.45
4. 5.84

For each listed entry, give its pIC50.
1. Cc1cc(Nc2ccc(F)cc2)n2nc(SCCCc3ccccc3)nc2n1
2. Cc1cc(Nc2ccc(F)cc2)n2nc(SCc3cccc4ccccc34)nc2n1

1: 5.37; 2: 5.76

###

Experiment: Inhibition of ABCB1 in multidrug-resistant human SW620/Ad300 cells assessed as increase in reversal of resistance to paclitaxel-induced cytotoxicity by measuring paclitaxel IC50 pre-incubated for 4 hrs followed by paclitaxel addition and measured after 72 hrs by MTT assay (Rvb = 4.23 +/- 0.6 uM)
For each of the molecules below, state its pIC50.
Give bare numbers, as −log10 of the molar value.

Reference set (3 entries):
INSERT INTO measurements (cpd_smiles, value_measured) VALUES
  ('Cc1cc(Nc2ccc(F)cc2)n2nc(SCc3ccc(Br)cc3)nc2n1', 5.86),
  ('Cc1ccc(Nc2cc(C)nc3nc(SCc4nc5ccccc5[nH]4)nn23)c(F)c1', 6.20),
  ('Cc1cc(Nc2ccc(F)cc2)n2nc(SCc3nc4ccccc4[nH]3)nc2n1', 7.66);

For each listed entry, give its pIC50.
1. Cc1cc(Nc2ccc(F)c(C)c2)n2nc(SCc3nc4ccccc4[nH]3)nc2n1
2. Cc1cc(Nc2ccc(F)cc2)n2nc(SCc3ccc(F)cc3)nc2n1

[6.33, 5.90]

###

Assay: Inhibition of ABCB1 in multidrug-resistant human SW620/Ad300 cells assessed as increase in reversal of resistance to paclitaxel-induced cytotoxicity by measuring paclitaxel IC50 pre-incubated for 4 hrs followed by paclitaxel addition and measured after 72 hrs by MTT assay (Rvb = 4.23 +/- 0.6 uM)
Output schema: class label derived from IC50. Mapping: range A = under 800 nM, range B = from 800 nM up to 2000 nM, range C = 2000 nM and over

Previously resolved entries follow.
INSERT INTO measurements (cpd_smiles, discrete_label) VALUES
  ('Cc1cc(Nc2ccc(F)cc2)n2nc(SCC3CC3)nc2n1', 'range C'),
  ('Cc1cc(Nc2ccc(OC(F)(F)F)cc2)n2nc(SCc3nc4ccccc4[nH]3)nc2n1', 'range A'),
  ('Cc1cc(Nc2ccc(C(F)(F)F)cc2)n2nc(SCc3nc4ccccc4[nH]3)nc2n1', 'range B'),
  ('Cc1cc(Nc2ccc(F)c(Cl)c2)n2nc(SCc3nc4ccccc4[nH]3)nc2n1', 'range A');

Hey, which category is CC(=O)c1ccc(Nc2cc(C)nc3nc(SCc4nc5ccccc5[nH]4)nn23)cc1 in, do you know?
range A

Hey, which category is C=CCSc1nc2nc(C)cc(Nc3ccc(F)cc3)n2n1 in, do you know?
range C

###

Assay: Inhibition of ABCB1 (unknown origin) expressed in HEK293 cells assessed as increase in reversal of resistance to paclitaxel-induced cytotoxicity by measuring paclitaxel IC50 at 20 uM pre-incubated for 4 hrs followed by paclitaxel addition and measured after 72 hrs by MTT assay (Rvb = 91.40 +/- 23.32 nM)
measurement_name: IC50 (nM)
One number for each entry, in nM.

Quickly give me recorded IC50 for Cc1cc(Nc2ccc(F)cc2)n2nc(SCc3nc4ccccc4[nH]3)nc2n1
5

###

Experiment: Inhibition of ABCB1 in multidrug-resistant human SW620/Ad300 cells assessed as increase in reversal of resistance to paclitaxel-induced cytotoxicity by measuring paclitaxel IC50 pre-incubated for 4 hrs followed by paclitaxel addition and measured after 72 hrs by MTT assay (Rvb = 4.23 +/- 0.6 uM)
For each of the molecules below, state its pIC50.
Answers are plain numbers, as −log10 of the molar value.

INSERT INTO assay_data (cpd_smiles, value_measured) VALUES
  ('Cc1cc(Nc2ccc(Br)cc2)n2nc(SCc3nc4ccccc4[nH]3)nc2n1', 6.35),
  ('COc1cccc(Nc2cc(C)nc3nc(SCc4nc5ccccc5[nH]4)nn23)c1', 6.24),
  ('Cc1cc(Nc2ccccc2F)n2nc(SCc3nc4ccccc4[nH]3)nc2n1', 6.66),
  ('Cc1cc(Nc2ccc(C#N)cc2)n2nc(SCc3nc4ccccc4[nH]3)nc2n1', 6.23);

Quickly give me recorded pIC50 for C#Cc1cccc(Nc2cc(C)nc3nc(SCc4nc5ccccc5[nH]4)nn23)c1
5.84

###

Assay: Inhibition of ABCB1 in multidrug-resistant human KB-C2 cells assessed as increase in reversal of resistance to paclitaxel-induced cytotoxicity by measuring paclitaxel IC50 at 10 uM pre-incubated for 4 hrs followed by paclitaxel addition and measured after 72 hrs by MTT assay (Rvb = 1886.37 +/- 243.05 nM)
measurement_name: IC50
Report as: number unit

Quickly give me recorded IC50 for Cc1cc(Nc2ccc(F)cc2)n2nc(SCc3nc4ccccc4[nH]3)nc2n1
22 nM
